# self-aminoacylation per entry
Test system: biotinyl-Phe-oxazolone
procedure.details: self-aminoacylation, catalytic enhancement (BFO) (fold over background); higher = more active; k-Seq, kA / k0A0; sequences stand for … in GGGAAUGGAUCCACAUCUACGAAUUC…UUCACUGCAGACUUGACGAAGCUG
Fewer inactive variants are shown than the library holds.
Provide a numeric answer; units are not to be included.

Use these answered entries as a reference point.
chain.sequence: GCACACUUCAAGCAAUCAGUC [Fam1B.1 aminoacylation ribozyme variant]
self-aminoacylation: 9.69
--
chain.sequence: UAGUUUGCUACUAGUCGCAAG [Fam3.1 aminoacylation ribozyme variant]
self-aminoacylation: 1.57
--
chain.sequence: CCACACUCCAACCAAUCGGUC [Fam1B.1 aminoacylation ribozyme variant]
self-aminoacylation: 3.55

Query block: Sample AUUACCAUGGUGAUCGAGUGA [Fam2.1 aminoacylation ribozyme variant] — what was its self-aminoacylation?
Result block: 14.7

Query block: Sample AUUCACCUCGGUCAUCGGAUG [Fam2.2 aminoacylation ribozyme variant] — what was its self-aminoacylation?
Result block: 0.352

Query block: Sample AUUCUCCUAGGUCACCGGGUG [Fam2.2 aminoacylation ribozyme variant] — what was its self-aminoacylation?
Result block: 39.8

Query block: Sample CUACUGCAAACUAUCGGUCUG [Fam1A.1 aminoacylation ribozyme variant] — what was its self-aminoacylation?
Result block: 1.14

Query block: Sample CCACACUUCGAGCGAUCGGUC [Fam1B.1 aminoacylation ribozyme variant] — what was its self-aminoacylation?
Result block: 2.95

Query block: Sample AGUCACCUACGUCAUCGGGUG [Fam2.2 aminoacylation ribozyme variant] — what was its self-aminoacylation?
Result block: 32.4

Query block: Sample GUUACCCUGGCCAUCGAGUGA [Fam2.1 aminoacylation ribozyme variant] — what was its self-aminoacylation?
Result block: 43.7

Query block: Sample AUUACCCUGGGCAUCGAAUGA [Fam2.1 aminoacylation ribozyme variant] — what was its self-aminoacylation?
Result block: 1.14

Query block: Sample AAUACCCUGGUCAUUGAGUGA [Fam2.1 aminoacylation ribozyme variant] — what was its self-aminoacylation?
Result block: 17.1

Query block: Sample CUACUACAAACAAUCGGUCAG [Fam1A.1 aminoacylation ribozyme variant] — what was its self-aminoacylation?
Result block: 0.636

Query block: Sample AUUACCCUGCUCAUCGUGUGA [Fam2.1 aminoacylation ribozyme variant] — what was its self-aminoacylation?
Result block: 14.7
